test system: paddy rice; experiment: Experiment 7 flooded soil treatment: injury to paddy rice; assay type: in vivo; parameters: key: 5: completely killed; 4: seriously injured; 3: considerably injured; 2: somewhat injured; 1: slightly injured; 0: not injured (normally grown); settings: 6.25 g/10a, evaluated 4 weeks after treatment

Molecule: COC(=O)COc1cc(N(C(=O)C2=C(C(=O)OC)CCCC2)C(=O)c2cccs2)c(F)cc1Cl
Target entity: paddy rice
Injury of Paddy: 0
--
Molecule: C#CC(C)Oc1cc(N(C(=O)C2=C(C(=O)OC)CCCC2)C(=O)c2ccsc2)c(F)cc1Cl (centres unmarked)
Target entity: paddy rice
Injury of Paddy: 0.5
--
Molecule: C#CC(C)Oc1cc(N(C(=O)C2=C(C(=O)OCCC)CCCC2)C(=O)c2cccs2)c(F)cc1Cl (centres unmarked)
Target entity: paddy rice
Injury of Paddy: 0
--
Molecule: COC(=O)C1=C(C(=O)N(C(=O)c2cccs2)c2cc(OC3CCCC3)c(Cl)cc2F)CCCC1
Target entity: paddy rice
Injury of Paddy: 0.5
--
Molecule: C#CC(C)Oc1cc(N(C(=O)C2=C(C(=O)OC)CCCC2)C(=O)c2ccc(C)s2)c(F)cc1Cl (centres unmarked)
Target entity: paddy rice
Injury of Paddy: 0
--
Molecule: C#CC(C)Oc1cc(N(C(=O)C2=C(C(=O)OC)CCCC2)C(=O)c2ccc(Cl)s2)c(F)cc1Cl (centres unmarked)
Target entity: paddy rice
Injury of Paddy: 0
--
Molecule: C#CC(C)Oc1cc(N(C(=O)C2=C(C(=O)OC)CCCC2)C(=O)c2sccc2C)c(F)cc1Cl (centres unmarked)
Target entity: paddy rice
Injury of Paddy: 0
--
Molecule: C#CC(C)Oc1cc(N(C(=O)C2=C(C(=O)OCCC)CCCC2)C(=O)c2ccsc2)c(F)cc1Cl (centres unmarked)
Target entity: paddy rice
Injury of Paddy: 0.5
